Recorded LD50 for the following compounds
ASSAY INFO: mammalian toxicity against Swiss white mice (oral)
MEASUREMENT CONTEXT: mouse, in vivo, corn oil carrier

{"COMPOUND": "CCCCN(CCCC)S(=O)(=O)N(C)[S+]([O-])N(C)C(=O)ON=C(C)SC (stereo not drawn)", "VALUE OPERATOR": "=", "LD50 [mg/kg]": 100}
{"COMPOUND": "CSC(C)=NOC(=O)N(C)[S+]([O-])N(C)S(=O)(=O)c1ccccc1 (stereo not drawn)", "VALUE OPERATOR": "=", "LD50 [mg/kg]": 86}
{"COMPOUND": "CN(C(=O)Oc1cccc2c1OC(C)(C)C2)[S+]([O-])N(C)S(=O)(=O)c1ccccc1 (stereo not drawn)", "VALUE OPERATOR": "=", "LD50 [mg/kg]": 35}
{"COMPOUND": "CC(C)c1cccc(OC(=O)N(C)[S+]([O-])N(C)S(=O)(=O)c2ccccc2)c1 (stereo not drawn)", "VALUE OPERATOR": "=", "LD50 [mg/kg]": 150}
{"COMPOUND": "CCN([S+]([O-])N(C)C(=O)ON=C(C)SC)S(C)(=O)=O (stereo not drawn)", "VALUE OPERATOR": "=", "LD50 [mg/kg]": 250}
{"COMPOUND": "CCCCN(CCCC)S(=O)(=O)N(C)[S+]([O-])N(C)C(=O)Oc1cccc2c1OC(C)(C)C2 (stereo not drawn)", "VALUE OPERATOR": "=", "LD50 [mg/kg]": 25}
{"COMPOUND": "CN(C(=O)Oc1cccc2ccccc12)[S+]([O-])N(C)S(=O)(=O)c1ccccc1 (stereo not drawn)", "VALUE OPERATOR": ">", "LD50 [mg/kg]": 500}
{"COMPOUND": "CCN([S+]([O-])N(C)C(=O)Oc1cccc(C(C)C)c1)S(C)(=O)=O (stereo not drawn)", "VALUE OPERATOR": "=", "LD50 [mg/kg]": 200}
{"COMPOUND": "CC(C)Oc1ccccc1OC(=O)N(C)[S+]([O-])N(C)S(=O)(=O)c1ccccc1 (stereo not drawn)", "VALUE OPERATOR": "=", "LD50 [mg/kg]": 250}
